- tested_system: T1, human GIP receptor (human, UniProt P48546 22-466)
- T1 sequence (looked up): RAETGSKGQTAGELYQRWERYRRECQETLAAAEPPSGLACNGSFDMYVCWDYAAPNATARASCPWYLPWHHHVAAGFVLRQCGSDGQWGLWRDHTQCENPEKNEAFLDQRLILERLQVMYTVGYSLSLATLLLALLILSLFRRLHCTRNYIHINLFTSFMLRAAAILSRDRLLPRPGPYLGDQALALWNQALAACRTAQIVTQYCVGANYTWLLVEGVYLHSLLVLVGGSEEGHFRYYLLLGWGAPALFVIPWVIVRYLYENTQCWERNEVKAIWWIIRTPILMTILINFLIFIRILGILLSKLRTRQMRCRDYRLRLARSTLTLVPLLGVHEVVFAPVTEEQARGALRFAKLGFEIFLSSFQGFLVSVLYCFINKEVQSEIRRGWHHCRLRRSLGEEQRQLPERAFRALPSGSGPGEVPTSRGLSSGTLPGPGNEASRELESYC
- assay_protocol: cell-based or functional assay
Starred links: 1 amine or outer side, 2 acyl side, 3 side chain; linkers in the order of their positions; H or OH if unused. Non-standard residues stand in square brackets, D forms with d. Groups on a side chain read outwards from the residue. *: point of attachment. C20 diacid = O=C(O)CCCCCCCCCCCCCCCCCCC(=O)*; γGlu = O=C(O)[C@H](CCC(=O)[*:2])N[*:1]; Aib = CC(C)(N)C(=O)O
Examples of binders with documented EC50 hGIP R (cAMP, HEK293 cells expressing the GIP R) follow.
reported_metric: EC50 hGIP R (cAMP, HEK293 cells expressing the GIP R)

binder | value
H-Y[Aib]EGTFISDYSIELDKK([Peg3-Peg3-γGlu-C20 diacid])HQQDFVNWLLAQGPSSGAPPPS-NH2 [Compound 9] | 9 pM
H-Y[Aib]EGTFISDYSK([Peg3-Peg3-γGlu-C20 diacid])ELDKIAQRAFIEWLLAQGPSSGAPPPS-NH2 [Compound 35] | 11 pM
YAEGTFISDYSIELDKKAQRAFIEWLLAQGPSSGAPPPS (Aib at 2; Lys 17 side chain acylated: K((19-Carboxy-nonadecanoyl)-[(Piperazine-1-yl)-acetyl]-Peg3-Peg3); C-terminal amide (-NH2)) [Compound 19] | 5 pM
YAEGTFISDYSIELDKIAAQDFIEWLLAGPSSGAPPPSK (Aib at 2; Lys 39 side chain acylated: K((19-Carboxy-nonadecanoyl)-[(Piperazine-1-yl)-acetyl]-Peg3-Peg3); C-terminal amide (-NH2)) [Compound 26] | 32 pM
H-Y[Aib]EGTFISDYSIELEKIAQRAFVEWLLAQGPSSGAPPPSK([Peg3-Peg3-γGlu-C20 diacid])-NH2 [Compound 13] | 8 pM
